- tested.on: Procathepsin L (Homo sapiens, UniProt P07711)
- Sequence (P07711 whole entry): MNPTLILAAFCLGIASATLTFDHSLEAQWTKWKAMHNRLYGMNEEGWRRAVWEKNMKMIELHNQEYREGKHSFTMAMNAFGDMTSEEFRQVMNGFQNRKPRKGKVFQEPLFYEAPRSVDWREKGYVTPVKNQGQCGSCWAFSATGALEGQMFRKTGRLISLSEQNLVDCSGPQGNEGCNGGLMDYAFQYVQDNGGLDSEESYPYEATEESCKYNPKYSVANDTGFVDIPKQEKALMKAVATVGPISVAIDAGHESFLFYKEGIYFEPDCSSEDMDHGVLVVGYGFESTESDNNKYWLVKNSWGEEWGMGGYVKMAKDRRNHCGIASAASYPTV
- test.description: Inhibition of human cathepsin L
experimental.endpoint: IC50 (µM)

> print(dat)
                                   compound  result.value
1  COc1ccc(CC(NC(=O)c2ccc(-c3ccccc3)cc2)C(=O)NC2(C#N)CC2)cn1 (stereo not given)          2.63

[1] N#CC1(NC(=O)[C@H](Cc2ccncc2)NC(=O)c2ccc(-c3ccccc3)cc2)CC1
[2] CC(C)C[C@H](NC(=O)c1ccc(-c2ccccc2)cc1)C(=O)NC1(C#N)CC1
Exam item: Of 1 and 2 , which carries the smaller reported IC50 figure? Kindly give the label for the entry you pick.
Marked response: 2

====

- test.description: Selectivity ratio of IC50 for human cathepsin L to IC50 for Plasmodium falciparum falcipain-2
experimental.endpoint: Ratio IC50

Worked examples, 2 compounds total:
> print(dat)
                               query.smiles  result.value
1  Cn1nc(C(F)(F)F)cc1-c1ccc(C(=O)N[C@@H](Cc2cccnc2)C(=O)NC2(C#N)CCS(=O)(=O)CC2)s1           679
2  N#CC1(NC(=O)[C@H](Cc2cccnc2)NC(=O)c2ccc(-c3ccccc3)cc2)CC1            69

[1] CN1CCN(Cc2ccc(-c3cncc(C(=O)N[C@@H](Cc4cccnc4)C(=O)NC4(C#N)CC4)c3)cc2)CC1
[2] CS(=O)(=O)c1cccc(-c2cccc(C(=O)N[C@@H](Cc3cccnc3)C(=O)NC3(C#N)CC3)c2)c1
Exam item: Of 1 and 2 , which carries the smaller reported Ratio IC50 figure? Kindly give the label for the entry you pick.
Marked response: 1

====

Target protein (sequence): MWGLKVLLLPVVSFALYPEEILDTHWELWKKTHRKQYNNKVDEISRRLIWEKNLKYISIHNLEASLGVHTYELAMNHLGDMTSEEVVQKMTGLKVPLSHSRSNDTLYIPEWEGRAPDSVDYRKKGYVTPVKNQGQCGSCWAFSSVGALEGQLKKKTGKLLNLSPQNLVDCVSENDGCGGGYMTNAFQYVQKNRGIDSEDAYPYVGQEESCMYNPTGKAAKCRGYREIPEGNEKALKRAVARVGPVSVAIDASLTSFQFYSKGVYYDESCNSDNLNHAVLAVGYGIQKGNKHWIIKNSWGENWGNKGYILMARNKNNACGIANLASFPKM
experimental.endpoint: IC50 (nM)

Worked examples, 3 molecules total:
> print(dat)
                               query.smiles  experimental.endpoint  result.value
1  N#CC1(NC(=O)[C@H](Cc2cccnc2)NC(=O)c2ccc(-c3ccccc3)cc2)CC1                   IC50           202
2  N#CC1(NC(=O)[C@H](Cc2ccccc2)NC(=O)c2ccc(-c3ccccc3)cc2)CC1                   IC50           213
3  CC(C)CN(NC(=O)c1ccc(CN2CCN(C)CC2)cc1)c1nc(C#N)ncc1Br                   IC50           0.2

[1] N#CC1(NC(=O)[C@H](Cc2cscn2)NC(=O)c2ccc(-c3ccccc3)cc2)CC1
[2] CC(C)C[C@H](NC(=O)c1ccc(-c2ccccc2)cc1)C(=O)NC1(C#N)CCS(=O)(=O)CC1
[3] N#CC1(NC(=O)[C@H](Cc2ccccn2)NC(=O)c2ccc(-c3ccccc3)cc2)CC1
Exam item: Hello, I need these entries ordered by IC50, highest reading first. Thanks! Response format: the labels, sorted as the prompt asks.
Marked response: 3, 1, 2
(3: 3830 nM, 1: 435 nM, 2: 0.11 nM)

[a] N#CC1(NC(=O)[C@H](Cc2ccncc2)NC(=O)c2ccc(-c3ccccc3)cc2)CC1
[b] CC(C)C[C@H](NC(=O)c1ccc(-c2ccccc2)cc1)C(=O)NC1(C#N)CC1
Exam item: Of a and b , which carries the smaller reported IC50 figure? Kindly give the label for the entry you pick.
Marked response: b
